Values from ChEMBL document CHEMBL5058577

Consider the following compounds; for each one, report its Population Healthy Nuclei (%).
# System: U2OS
# test: Multiplex assay against U2OS
# Format: toxicity, cell-based
# condition.info: human, 48 h, 1 µM, compound concentration 1 uM, replicate 2
Enter your answer as a number in %; do not include the unit.

Prompt: Return reported Population Healthy Nuclei (%); argument: N[C@@]1(C(=O)O)CO[C@H]2[C@H](C(=O)O)[C@H]21
Completion: 72

Prompt: Field entry: O=C(O)Cc1ccccc1Nc1c(Cl)cccc1Cl
Completion: 70

Prompt: One more compound: CNC[C@H](O)c1ccc(O)c(O)c1 [EPINEPHRINE]
Completion: 72

Prompt: Record: Cc1ccc(-c2ccc(F)cc2COc2ccc(CCC(=O)O)cc2)cc1
Completion: 75

Prompt: Try this compound next: CN1CCN(c2nc3cc(C(F)(F)F)ccc3n3cccc23)CC1.O=C(O)/C=C\C(=O)O.O=C(O)/C=C\C(=O)O
Completion: 75

----------
# Tested on: HEK-293T
# test: Multiplex assay against HEK293T
# Assay type: toxicity, cell-based
# condition.info: human, 24 h, 10 µM, compound concentration 10 uM, replicate 1
Provide the reported Population Mitochondria Different-Phenotype (%) of each item.
Form entry: value (%) — number only.

Prompt: Requested field: Population Mitochondria Different-Phenotype (%). Item: CCCn1c(=O)c2[nH]c(C3CCCC3)nc2n(CCC)c1=O
Completion: 43

Prompt: Item: CN1CCN(c2nc3cc(C(F)(F)F)ccc3n3cccc23)CC1.O=C(O)/C=C\C(=O)O.O=C(O)/C=C\C(=O)O
Completion: 65

Prompt: Similarly, Cc1ccc(/C(=C\CN2CCCC2)c2ccccn2)cc1 ?
Completion: 55

Prompt: # repeat for O=C(NCC(=O)N1CC[C@H](N[C@H]2CC[C@@](O)(c3ccc(-c4ncccn4)cn3)CC2)C1)c1cccc(C(F)(F)F)c1
Completion: 39

----------
# System: U2OS
# test: Multiplex assay against U2OS
# Type: toxicity, cell-based
# condition.info: human, 48 h, 10 µM, compound concentration 10 uM, replicate 2
observable: Population Pyknosed Nuclei (%)
Value expressed in %; do not type the unit.

Prompt: Which Population Pyknosed Nuclei (%) value is on record for Cc1ccc(F)cc1C(=O)Nc1ccc(C(=O)N2Cc3cccn3Cc3ccccc32)c(Cl)c1 [LIXIVAPTAN] ?
Completion: 23

Prompt: What do we get for COc1cc(NC(=O)CCN2CCC(OC(=O)Nc3ccccc3-c3ccccc3)CC2)c(Cl)cc1CNC[C@H](O)c1ccc(O)c2[nH]c(=O)ccc12 [BATEFENTEROL] ?
Completion: 37

Prompt: What would you report for O=C(O)c1cc2ccccc2c(Cc2c(O)c(C(=O)O)cc3ccccc23)c1O [PAMOIC ACID] ?
Completion: 13

Prompt: Thanks! And Cc1ccc(C(C)(O)c2nc3ccccc3s2)c(C)c1 (stereo not drawn) ?
Completion: 5

Prompt: One more compound: CN(C)c1ccnc2sc3c(=O)n(N4CCCCCC4)cnc3c12
Completion: 22

Prompt: Now the compound Cc1nc2ccc(Oc3ccc(F)cc3)cc2c(=O)n1C[C@H]1CCCN(C(C)C)C1.Cl
Completion: 19

Prompt: Same question, CN(C)CCCc1cc(C(=O)Nc2ccc(-c3ccncc3)cc2)ccc1O.Cl.Cl this time
Completion: 16

Prompt: Then this compound: C[C@@H]1C[C@H]2[C@@H]3CCC4=CC(=O)C=C[C@]4(C)[C@@]3(F)[C@@H](O)C[C@]2(C)[C@@]1(O)C(=O)CO [DEXAMETHASONE]
Completion: 7

----------
# System: Fibroblast
# test: Multiplex assay against human fibroblast
# Format: toxicity, cell-based
# condition.info: 12 h, 10 µM, compound concentration 10 uM, replicate 1
observable: Population Mitochondria Different-Phenotype (%)
Please answer using the number first and the unit second.

Prompt: Value wanted: Population Mitochondria Different-Phenotype (%) (Fibroblast) of entry O=C(NCCO)c1cccc(-c2cc(Nc3ccc(OC(F)(F)F)cc3)ncn2)c1
Completion: 13%

Prompt: Now consider CCNC1(C(N)=O)CCN(c2ncnc3c2nc(-c2ccccc2Cl)n3-c2ccc(Cl)cc2)CC1 and answer again.
Completion: 16%

Prompt: Next compound: COc1c(C)cc(NC(=O)c2nn(Cc3ccc(F)cc3)c3c2CN(C(=O)c2ccc[nH]2)C[C@]3(C)C(N)=O)cc1C
Completion: 25%

Prompt: Also check CN(C)c1ccnc2sc3c(=O)n(N4CCCCCC4)cnc3c12
Completion: 14%

Prompt: Moving on to COc1cc(C(=O)N(CCCc2ccccc2)Cc2ccc(CC(=O)O)cc2)cc(OC)c1C
Completion: 5%

Prompt: Now give it for Cc1ccc(C(C)(O)c2nc3ccccc3s2)c(C)c1 (centres undefined) too.
Completion: 5%

Prompt: Another compound to look at: CNC[C@H](O)c1ccc(O)c(O)c1 [EPINEPHRINE]
Completion: 6%

Prompt: Cc1ccc(/C(=C\CN2CCCC2)c2ccccn2)cc1 ?
Completion: 5%

Prompt: Another compound to look at: CCCN1CCC[C@@H]2Cc3n[nH]cc3C[C@H]21.Cl [QUINPIROLE HYDROCHLORIDE]
Completion: 6%

----------
# System: Fibroblast
# test: Multiplex assay against human fibroblast
# Format: toxicity, cell-based
# condition.info: 24 h, 10 µM, compound concentration 10 uM, replicate 1
observable: Population Mitochondria Different-Phenotype (%)
Please give a number only; it is taken to be in %.

Prompt: GET /values?readout=Population Mitochondria Different-Phenotype (%)&system=Fibroblast&item= COc1c(C)cc(NC(=O)c2nn(Cc3ccc(F)cc3)c3c2CN(C(=O)c2ccc[nH]2)C[C@]3(C)C(N)=O)cc1C
Completion: 47

Prompt: Next compound up: CNC[C@H](O)c1ccc(O)c(O)c1 [EPINEPHRINE]
Completion: 5

Prompt: Subsequent entry: CC[C@H]1OC(=O)[C@H](C)[C@@H](O[C@H]2C[C@@](C)(OC)[C@@H](O)[C@H](C)O2)[C@H](C)[C@@H](O[C@@H]2O[C@H](C)C[C@H](N(C)C)[C@H]2O)[C@@]2(C)CC(C)=C(O2)[C@H](C)[C@@H](O)[C@]1(C)O
Completion: 37

----------
For each of the compounds below, state its Population Apoptotic (%).
# Tested on: HEK-293T
# test: Multiplex assay against HEK293T
# Format: toxicity, cell-based
# condition.info: human, 12 h, 10 µM, compound concentration 10 uM, replicate 2
State the answer as a number, implicitly in %.

Prompt: Name the recorded Population Apoptotic (%) for N[C@@]1(C(=O)O)CO[C@H]2[C@H](C(=O)O)[C@H]21 .
Completion: 52

Prompt: And the next one, O=C(NCC(=O)N1CC[C@H](N[C@H]2CC[C@@](O)(c3ccc(-c4ncccn4)cn3)CC2)C1)c1cccc(C(F)(F)F)c1 ?
Completion: 48

Prompt: Same thing, different compound: CN(C)c1ccnc2sc3c(=O)n(N4CCCCCC4)cnc3c12
Completion: 59

Prompt: Follow-up entry: CC1(COc2ccc3c(c2)ncn3-c2ccc3cccc(N4CCC(N)CC4)c3n2)COC1
Completion: 55

Prompt: Repeat with Cc1ccc(-c2ccc(F)cc2COc2ccc(CCC(=O)O)cc2)cc1
Completion: 42

----------
Exercise: for every item that follows, state its recorded Population Normal (%).
# System: HEK-293T
# test: Multiplex assay against HEK293T
# Format: toxicity, cell-based
# condition.info: human, 12 h, 10 µM, compound concentration 10 uM, replicate 2
Answer with a number only, understood to be in %.

Prompt: Suppose we examine the molecule CSc1ccccc1N1CCN(CCCCCC(=O)NC2CCCc3ccccc32)CC1.Cl (stereo not drawn) ; what Population Normal (%) value has been reported?
Completion: 83

Prompt: How about Oc1c(CN2CCN(c3ccccn3)CC2)cc(Cl)c2cccnc12 ?
Completion: 93

Prompt: Also CCNC1(C(N)=O)CCN(c2ncnc3c2nc(-c2ccccc2Cl)n3-c2ccc(Cl)cc2)CC1 , if possible.
Completion: 90

Prompt: Same question, O=C(O)Cc1ccccc1Nc1c(Cl)cccc1Cl this time
Completion: 85

Prompt: What do you have for CN1CCN(c2nc3cc(C(F)(F)F)ccc3n3cccc23)CC1.O=C(O)/C=C\C(=O)O.O=C(O)/C=C\C(=O)O ?
Completion: 90

Prompt: # iterate: Cc1ccc(-c2ccc(F)cc2COc2ccc(CCC(=O)O)cc2)cc1
Completion: 93

Prompt: Continue with O=C(NCCO)c1cccc(-c2cc(Nc3ccc(OC(F)(F)F)cc3)ncn2)c1
Completion: 87

Prompt: Follow-up entry: c1cc(OCCCN2CCCCC2)ccc1CN1CCCCC1
Completion: 88

Prompt: Now the molecule COc1cc(C(=O)N(CCCc2ccccc2)Cc2ccc(CC(=O)O)cc2)cc(OC)c1C
Completion: 93

Prompt: What do you get for COc1ccc2c(c1)C(C(=O)N(Cc1ccc(N(C)C)cc1)c1ccc(C(C)C)cc1)CCC2.Cl (stereo not drawn) ?
Completion: 93

Prompt: Same thing, different molecule: Cl.Clc1ccc2nsnc2c1NC1=NCCN1 [TIZANIDINE HYDROCHLORIDE]
Completion: 95

Prompt: Item: COc1cc(NC(=O)CCN2CCC(OC(=O)Nc3ccccc3-c3ccccc3)CC2)c(Cl)cc1CNC[C@H](O)c1ccc(O)c2[nH]c(=O)ccc12
Completion: 88

Prompt: // query: C[C@H](NC(=O)c1c(C(F)F)nn(C)c1Oc1cccc(C(F)(F)F)c1)c1ccc(C(=O)O)cc1
Completion: 89

Prompt: Try CN(C)c1ccnc2sc3c(=O)n(N4CCCCCC4)cnc3c12 next.
Completion: 86

Prompt: Try the molecule Cc1ccc(C(C)(O)c2nc3ccccc3s2)c(C)c1 (stereo not drawn)
Completion: 92

Prompt: What about this molecule? C[C@@H]1C[C@H]2[C@@H]3CCC4=CC(=O)C=C[C@]4(C)[C@@]3(F)[C@@H](O)C[C@]2(C)[C@@]1(O)C(=O)CO
Completion: 85

Prompt: One more molecule: Cc1nc2ccc(Oc3ccc(F)cc3)cc2c(=O)n1C[C@H]1CCCN(C(C)C)C1.Cl
Completion: 79

Prompt: Now consider COc1ccccc1N1CCN(CCCCNC(=O)c2ccc3ccccc3c2)CC1.Cl and answer again.
Completion: 84
